Where do these numbers come from? They come from patent US9169252B2.

Biological target: IRAK4 (Homo sapiens (Human), UniProt Q9NWZ3)
Sequence (Q9NWZ3 whole entry, species assumed): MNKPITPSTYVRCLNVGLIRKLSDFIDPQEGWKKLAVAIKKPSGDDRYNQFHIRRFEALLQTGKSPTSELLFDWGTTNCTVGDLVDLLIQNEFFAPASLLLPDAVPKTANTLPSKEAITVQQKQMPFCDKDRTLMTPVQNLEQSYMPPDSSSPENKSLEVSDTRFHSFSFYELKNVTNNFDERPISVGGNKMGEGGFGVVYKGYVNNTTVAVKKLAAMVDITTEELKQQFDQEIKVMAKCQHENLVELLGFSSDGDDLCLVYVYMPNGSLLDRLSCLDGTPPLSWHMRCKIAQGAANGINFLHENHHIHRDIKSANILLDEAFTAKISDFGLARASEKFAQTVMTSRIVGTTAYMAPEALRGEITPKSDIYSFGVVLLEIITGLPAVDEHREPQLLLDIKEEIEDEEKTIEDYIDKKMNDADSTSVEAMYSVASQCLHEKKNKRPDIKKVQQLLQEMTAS
Test: IRAK4 Inhibition Assay
Format: biochemical
Details: ATP 500 μM; IRAK4 0.6 nM; read-out: IRAK4 IC50
Field 'label' (enum: Yes / No). Set to Yes when IC50 is strictly under 5 nM; else No.

Prompt line: Consider the molecule CC(C)(O)[C@H](F)CNC(=O)c1cnc(-n2ccc3cc(C#N)cnc32)cc1Nc1cccc(-c2ncc[nH]2)c1 . Is its IC50 strictly less than 5 nM?
Response line: Yes

Prompt line: Just wondering, is IC50 of CC(C)(O)[C@H](F)CNC(=O)c1cnc(-n2ncc3cc(C#N)cnc32)cc1NC1CCN(c2ncc(F)cn2)CC1 below 5 nM?
Response line: Yes

* * *

Tested on: TLR2 induced IL-6 in peripheral blood mononuclear cells (PBMCs)
Assay: PBMC TLR2 Induced IL-6 Assay
Type: cell-based, human
Conditions: Homo sapiens, PBMC, PBMC TLR2 Induced IL-6 Assay; lipoteichoic acid stimulation, IL-6 by ELISA; read-out: Cell IC50
List of pIC50 values.
Field pIC50 (float): negative decimal logarithm of the concentration in molar.

Solved entries:
CC(C)(F)Cn1cc(Nc2cc(-n3ncc4cc(C#N)cnc43)ncc2C(=O)NC[C@@H](F)C(C)(C)O)cn1 | 6.81
CC(C)(O)[C@H](F)CNC(=O)c1cnc(-n2cnc3cc(C#N)cnc32)cc1NC1CCC1 | 6.83
CCCn1cc(Nc2cc(-n3ccc4cc(C#N)cnc43)ncc2C(=O)NC[C@@H](F)C(C)(C)O)cn1 | 6.95

Value sought: pIC50, system TLR2 induced IL-6 in peripheral blood mononuclear cells (PBMCs), item CC[C@@H](C)Nc1cc(-n2ncc3cc(C#N)cnc32)ncc1C(=O)NCCC(C)(C)O . Result: 6.54

* * *

IC50: recorded values
Target: IRAK4 (Homo sapiens (Human))
Test: IRAK4 Inhibition Assay
Assay type: biochemical
Conditions: ATP 500 μM; IRAK4 0.6 nM; read-out: IRAK4 IC50
Answer format: numeric, nM implied, no suffix.

// solved cases for IC50 follow
CC(C)(O)[C@H](F)CNC(=O)c1cnc(-n2ccc3cc(C#N)cnc32)cc1NC1COC1 [Example 437] | 1
CC(C)Nc1cc(-n2ncc3cc(C#N)cnc32)ncc1C(=O)NC1CCN(C(=O)C2CN(S(C)(=O)=O)C2)CC1 [Example 584] | 10
COC(=O)N1CC(Nc2cc(-n3ncc4cc(C#N)cnc43)ncc2C(=O)NC[C@@H](F)C(C)(C)O)C1 [Example 542] | 7.3

Please look at the following molecule next.
CC(C)(F)CCNc1cc(-n2ncc3cc(C#N)cnc32)ncc1C(=O)NC[C@@H](F)C(C)(C)O [Example 600] has a reported IC50 of 5.3

* * *

Target: IRAK4 (Homo sapiens (Human))
Assay: IRAK4 Inhibition Assay
Assay type: biochemical
Settings: ATP 500 μM; IRAK4 0.6 nM; read-out: IRAK4 IC50
Binarize IC50 at 5 nM; below is true, at or above is false.

CC(C)(O)[C@H](F)CNC(=O)c1cnc(-n2ncc3cc(C#N)cnc32)cc1N[C@H]1CC[C@@](C)(O)CC1 | true
CC(C)Nc1cc(-n2ccc3cc(C#N)cnc32)ncc1C(=O)NC12CCC(O)(CC1)C2 | false
COC(C)(C)CNc1cc(-n2ncc3cc(C#N)cnc32)ncc1C(=O)NC[C@@H](F)C(C)(C)O | false
CCCC(=O)NCc1cnc2c(ccn2-c2cc(NC(C)C)c(C(=O)NC[C@@H](F)C(C)(C)O)cn2)c1 | true
CC(C)(O)[C@H](F)CNC(=O)c1cnc(-n2ncc3cc(C#N)cnc32)cc1NCC1(F)CCC1 | false

We now examine a further molecule.
Prompt line: Decide: IC50 of CC(C)(O)[C@H](F)CNC(=O)c1cnc(-n2ncc3cc(C#N)cnc32)cc1Nc1ccc2ncsc2c1 strictly below 5 nM?
Response line: true
